test system: A549/ATCC NSCLC; assay: NCI-60 one-dose screen, 48 h (100 = growth as untreated, 0 = no growth, -100 = all killed); settings: 10 µM unless noted
About 83,000 compounds went through this panel and 20% of them were active in at least one assay; those are over-represented in the sample as a whole. Active and inactive are the calls of the source. Rule for the calls: active = growth percent below 10; inactive = the rest.
metric: growth

{"compound": "Cc1ccc(-n2c(=S)[nH]c3sc4c(c3c2=O)CCC(=O)C4)cc1", "study.system": "A549/ATCC NSCLC", "growth": "51.8% (inactive)"}
{"compound": "Cc1cc(=O)[nH]c2c(C#N)cnn12", "study.system": "A549/ATCC NSCLC", "growth": "97.5% (inactive)"}
{"compound": "O=C(NCCCCNC(=O)OCc1ccc2c(Cl)cc(Cl)c(O)c2n1)OCc1ccc2c(Cl)cc(Cl)c(O)c2n1", "study.system": "A549/ATCC NSCLC", "growth": "14.8% (inactive)"}
{"compound": "Fc1ccc(Nc2nc3nonc3nc2Nc2ccc(I)cc2)cc1", "study.system": "A549/ATCC NSCLC", "growth": "2.73% (active)"}
{"compound": "C[C@]12CC[C@@H]3c4ccc(O)c([N+](=O)[O-])c4CC[C@H]3[C@@H]1CCC2=O", "study.system": "A549/ATCC NSCLC", "growth": "102% (inactive)"}
{"compound": "C=CC(=O)NCc1ccc(Nc2nccc(-c3ccc(N4CCCC4)c(C#N)c3)n2)cc1", "study.system": "A549/ATCC NSCLC", "growth": "19.2% (inactive)"}
{"compound": "O=C(CSc1nc2sc3c(c2c(=O)n1-c1ccccc1)CCCCC3)N/N=C/c1ccc(F)cc1", "study.system": "A549/ATCC NSCLC", "growth": "9.73% (active)"}

Alright, here's another compound for you.
Exercise: Quick check: growth of C[C@]12C=CC(=O)C=C1CCC1C2[C@@H](O)C[C@@]2(C)C1CC[C@]2(O)C(=O)COC(=O)CCC(=O)O (stereo partly drawn) ?
Solution: 71.3% (inactive)

* * *

tested on: SN12C renal; experiment: NCI-60 one-dose screen, 48 h; details: 10 µM unless noted
About 83,000 compounds went through this panel and 20% of them were active in at least one assay; those are over-represented in the sample as a whole. The source made the active and inactive calls. The calls were made as follows: active = growth percent below 10; inactive = the rest.
Outcome (select one): label 1 (active), label 0 (inactive)

Exercise: Could you check what this test reported for "CNC(=O)c1cc(Oc2ccc3c(c2)sc2nc(-c4cc(OC)c(OC)c(OC)c4)cn23)ccn1" ?
Solution: label 0

* * *

Consider the following compounds; for each one, report its growth.
system: MDA-MB-231 breast; test: NCI-60 one-dose screen, 48 h (100 = growth as untreated, 0 = no growth, -100 = all killed); conditions: 10 µM unless noted
Compounds without any hit were thinned out: in the full panel of roughly 83,000, 20% have a hit.
Numbers only, in %.

{"compound": "O=C(O)c1[nH]c(=O)[nH]c(=O)c1[N+](=O)[O-]", "unit.abbrev": "%", "test.value": 110}
{"compound": "COc1cccc([C@H]2c3[nH]c4ccccc4c3C[C@H]3C(=O)N(CCCCCCC(=O)NO)CC(=O)N23)c1", "unit.abbrev": "%", "test.value": 68.7}
{"compound": "COc1ccc(/C=C2\\COc3ccc(O)cc3C2=O)c(OC)c1OC", "unit.abbrev": "%", "test.value": 82.9}
{"compound": "Cn1cc(-c2nonc2-c2c[nH]c3ccc(Br)cc23)c2cc(Br)ccc21", "unit.abbrev": "%", "test.value": 31.9}
{"compound": "CCCCCCC1(C)NCCO1 (stereo not given)", "unit.abbrev": "%", "test.value": 104}

Go through the items and report each one's growth.
1. C1=C(N2CCCC2)CCC1
2. O=C1c2c(c3c4ccc(Br)cc4oc3c3[nH]c4ccccc4c23)C(=O)N1O
3. Cc1ccc(NC(=S)NNC(=S)NNc2ccccc2)cc1C
4. CN(C)CCCC1(c2ccc(F)cc2)OCc2cc(-c3cccc4[nH]ccc34)ccc21 (stereo not given)

Solution:
1. 98.8
2. 80.1
3. 104
4. 40.8
